What shrunken log2 fold change was measured for each of the following?
Tested on: Escherichia coli TOP10;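 also: peptides expressed intracellularly from a pBAD plasmid library in pooled LB shake-flask culture, induced with 0.3% L-arabinose, DNA abundance read by NGS, three biological replicates, DESeq2 with apeglm shrinkage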
Test: shrunken log2 fold change of peptide-encoding DNA abundance (4.5 h post-induction vs induction); higher = less antimicrobial activity (less host growth inhibition)
Conditions: time post-induction: 4.5 h; library: site-saturation at positions 5, 18, 19, 20
Answers are plain numbers.

Some solved entries appear below for comparison.
>>> data_value("RRIRKRPPRLPRPRPRPQYNPRP")
-0.67
>>> data_value("RRIRDRPPRLPRPRPRPVPPPRP")
0.453
>>> data_value("RRIRVRPPRLPRPRPRPQADPRP")
0.0259

Next item in the queue.
Reported Escherichia coli TOP10 shrunken log2 fold change for item RRIRQRPPRLPRPRPRPAFWPRP was 0.382
